# Tested on: U251 CNS
# Experiment Description: NCI tumour cell line growth inhibition, 48 h
Readout Label: TGI

COc1ccc(OC)c2c1[nH]c(=O)c1c3ccccc3cn21: 2.76 µM
O=C1/C(=C/c2ccc(Br)s2)NC(=S)N1c1ccccc1: > 100 µM
CCC(=O)CC(=O)CCC(=O)Nc1cc(C)ccc1C: > 100 µM
CCC12CCCN(Cc3ccccc3)C1c1c(n(C)c3ccccc13)CC2 (configuration not stated): > 253 µM

Which TGI is reported for this molecule? "Cc1ccc(S(=O)(=O)c2[nH]cc(/C(=C\C3CCCCC3)[N+](=O)[O-])c2C2CCCCC2)cc1"
4.56 µM

Which TGI is reported for this molecule? COC(=O)C1=C(C(=O)OC)N(c2ccc(OC)cc2[N+](=O)[O-])C(c2ccc(C)cc2)=CC1c1ccc(OC)cc1OC (configuration not stated)
34.8 µM

Which TGI is reported for this molecule? "CC(C)(C)NNC(=O)CCn1[nH]c(=O)c(Cl)c(Cl)c1=O"
> 100 µM

Which TGI is reported for this molecule? CC(C)C1=CC23CCC4C(C)(C(=O)O)CCCC4(C)C2CC1C1C(=O)N(c2ccc(Cc4ccc(N5C(=O)C6C7CC8C9(C)CCCC(C)(C(=O)O)C9CCC8(C=C7C(C)C)C6C5=O)cc4)cc2)C(=O)C13 (configuration not stated)
14.4 µM

Which TGI is reported for this molecule? "CCN(CC)Cc1ccc(C(=S)Nc2ccc(Cl)cc2)s1"
26.2 µM

Which TGI is reported for this molecule? "CSc1nc(=O)n(CCC#N)nc1SC"
> 100 µM

Which TGI is reported for this molecule? "O=C1c2cccc3c2C(=O)c2c(cccc21)OCCOCCOCCOCCO3"
> 100 µM

Which TGI is reported for this molecule? "CCOC(=O)Nc1[nH]cc(-c2ccccc2)c1C#N"
> 100 µM
